Sourced from ChEMBL document CHEMBL1159121

# testDescription: Selectivity ratio of IC50 for human fibroblasts to IC50 for human melanoma cells
# Assay type: ADME
# conditionNotes: human fibroblasts and human melanoma cells, read-out: Ratio IC50
Documented selectivity ratio across a set of compounds

See these solved cases before continuing.
> print(dat)
                                   compound  testresult
1  CCCCCCCCCCCCCCCCNC(=O)[C@@H]1CSC(c2cc(OC)c(OC)c(OC)c2)N1 (mixture of isomers)           2
2  CCCCCCCCCCCCCCCCNC(=O)[C@@H]1CSC(c2ccc(NC(N)=O)cc2)N1 (mixture of isomers)         1.8
3  CCCCCCCCC/C=C/CCCCCCCNC(=O)[C@@H]1CSC(c2cc(OC)c(OC)c(OC)c2)N1 (mixture of isomers)           2

# input Look up selectivity ratio for this compound: CCCCCCCCCCCCCCCCNC(=O)[C@@H]1CSC(c2cccc(OC)c2)N1 (mixture of isomers)
# output 1.3

# input Look up selectivity ratio for this compound: CCCCCCCCCCCCCCCCNC(=O)[C@@H]1CSC(c2ccccc2OC)N1 (mixture of isomers)
# output 2.2
